Data provenance: the supplement of paper PMC10567573

B1: FLOT1 (parent)
chain: QMAKKAEAFQLYQEAAQLDMLLEK

- Variants of: B1
- procedure-details: protein stability index of a GFP-peptide fusion (GPS, HEK-293T) (PSI 1-6); higher = more stable;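 further: lentivirally expressed fusions sorted by FACS into six bins by GFP to DsRed ratio, PSI derived from sequencing read proportions per bin multiplied by bin number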
- experimental-setup: c terminus: a fixed tail appended
quantity: protein stability index

Use the examples below as a reference point.
protein stability index for `Q10F` ? 1.28

Same again, this time with `Q1I` 2.83

Same again, this time with `F9A` 2

Same again, this time with `E14I` 3.03

Same again, this time with `L21H` 3.47

Others:
protein stability index for `A16H` ? 3.3

Same again, this time with `F9W` 1.86

Same again, this time with `Q10Y` 2.59

Same again, this time with `D19W` 1.34

Same again, this time with `K5P` 2.83
